All values here come from paper PMC11855827.

I'd be grateful if you could share measured inhibition at 110 µM for these entries.
- Tested on: C. elegans
- EXPERIMENTAL_DETAILS: microbe, parasite or virus in culture
- CONDITIONS_USED: Caenorhabditis elegans, 24 h, read-out: Percentage of motility inhibition 24 h, Table S2, C. elegans SS assay, 110 μM, 24 h, averages of 4 data points
One number for each entry, in %.

INSERT INTO results (molecule, endpoint_result) VALUES
  ('CC1=C[C@]2(O)O[C@@]3(CC2=C(C)C)[C@@H](C)CC[C@@H]13', 38),
  ('C=C1C[C@@]23CC[C@H]4[C@@](C)(CCC[C@@]4(C)C(=O)O[C@@H]4O[C@H](CO)[C@@H](O)[C@H](O)[C@H]4O)[C@@H]2CC[C@]1(O[C@@H]1O[C@H](CO)[C@@H](O)[C@H](O)[C@H]1O)C3 [Rubusoside]', 18),
  ('C[N+](C)(C)[C@@H](Cc1c[nH]c2ccccc12)C(=O)[O-]', 0),
  ('CC(=O)Oc1cccc2c1C(=O)c1c(OC(C)=O)cc(C(=O)O)cc1C2=O', 8),
  ('COC[C@H]1C[C@@H](c2nc(-c3ccc4c(c3)COc3cc5c(ccc6nc([C@@H]7CC[C@H](C)N7C(=O)[C@@H](NC(=O)OC)C(C)C)[nH]c65)cc3-4)c[nH]2)N(C(=O)[C@H](NC(=O)OC)c2ccccc2)C1', 1);

Okay, next one:
Inquiry: May I ask what inhibition at 110 µM has been recorded for `C[C@H]1COc2c(N3CCN(C)CC3)c(F)cc3c(=O)c(C(=O)O)cn1c23` ?
Reply text: 10

* * *

- System: C. elegans
- CONDITIONS_USED: Table S2, C. elegans SS assay, 110 μM, 0 h, averages of 4 data points
Counter-ions that a name gives are not always drawn.
I'd be grateful if you could share measured Percentage of motility inhibition 0 h for these entries.
Give bare numbers, in %.

INSERT INTO results (molecule, system_name, units, endpoint_result) VALUES
  ('COC(=O)C1=CO[C@@H](O[C@@H]2O[C@H](CO)[C@@H](O)[C@H](O)[C@H]2O)[C@@H]2[C@@]3(C)O[C@H]3[C@@H](O)[C@]12O [Sesamoside]', 'C. elegans', '%', 4),
  ('CC1=C2C[C@H]3[C@@H](CC(=O)[C@H]4C[C@@H](O)CC[C@@]43C)[C@@H]2CC[C@]12O[C@@H]1C[C@H](C)CN[C@H]1[C@H]2C', 'C. elegans', '%', 0),
  ('CCC(CC)[C@H](NC(C)=O)[C@@H]1[C@H](O)[C@@H](C(=O)O)C[C@H]1NC(=N)N.O.O.O [Peramivir (trihydrate)]', 'C. elegans', '%', 2),
  ('C=C[C@H]1[C@H](O[C@@H]2O[C@H](CO)[C@@H](O)[C@H](O)[C@H]2O)OC=C(C(=O)OC)[C@H]1C[C@@H]1c2cc(O)c(O)cc2CCN1C(C)=O [Ipecoside]', 'C. elegans', '%', 0);

Okay, next one:
Inquiry: May I ask what Percentage of motility inhibition 0 h has been recorded for CC[C@@H](C(=O)[C@@H](C)[C@@H](O)[C@H](C)[C@@H]1O[C@@H]([C@@H](CC)C(=O)O)CC[C@@H]1C)[C@H]1O[C@]2(C=C[C@@H](O)[C@]3(CC[C@@](C)([C@H]4CC[C@](O)(CC)[C@H](C)O4)O3)O2)[C@H](C)C[C@@H]1C [Salinomycin (sodium salt)] ?
Reply text: 28
